Reference for the values: patent US20220144956A1

target: human TGFßRII (antigen of the Octet experiments) (human, UniProt P37173 23-166)
Sequence (P37173 23-166): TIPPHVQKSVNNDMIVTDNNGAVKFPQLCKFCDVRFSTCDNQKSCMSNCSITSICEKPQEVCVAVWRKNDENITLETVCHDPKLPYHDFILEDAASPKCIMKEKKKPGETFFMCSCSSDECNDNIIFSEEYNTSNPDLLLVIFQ
testDetails: Octet
measureName: pKd
A value of pKd is the negative decimal logarithm of a concentration given in moles per litre.

# binder, measureName, number
records = [
    ("XENP35121 H1.30 L1 (antibody, V domains shown) VH: QLQVQESGPGLVKPSETLSLTCTVSGGSISNSYFYWGWIRQPPGKGLEWIGSFYYGEKTYYNPSLKSRATISIDTSKSQFSLKLSSVTAADTAVYYCPRGPTMIRGVIDSWGQGTLVTVSS VL: EIVLTQSPATLSLSPGERATLSCRASQSVRSYLAWYQQKPGQAPRLLIYDASNRATGIPARFSGSGSGTDFTLTISSLEPEDFAVYYCQQRSNWPPTFGQGTKVEIK", "pKd", 7.99),
    ("XENP35120 H1.29 L1 (antibody, V domains shown) VH: QLQVQESGPGLVKPSETLSLTCTVSGGSISNSYFTWGWIRQPPGKGLEWIGSFYYGEKTYYNPSLKSRATISIDTSKSQFSLKLSSVTAADTAVYYCPRGPTMIRGVIDSWGQGTLVTVSS VL: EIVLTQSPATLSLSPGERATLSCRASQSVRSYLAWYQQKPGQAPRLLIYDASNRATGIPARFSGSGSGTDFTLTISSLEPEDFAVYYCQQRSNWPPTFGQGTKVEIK", "pKd", 8.34),
    ("XENP34306 H1.1 L1 (antibody, V domains shown) VH: QLQVQESGPGLVKPSETLSLTCTVSGGSISNSYFSWGWIRQPPGKGLEWIGSFYYGEKTYYNPSLKSRATISIDTSKSQFSLKLSSVTAADTAVYYCPRGPTVIRGVIDSWGQGTLVTVSS VL: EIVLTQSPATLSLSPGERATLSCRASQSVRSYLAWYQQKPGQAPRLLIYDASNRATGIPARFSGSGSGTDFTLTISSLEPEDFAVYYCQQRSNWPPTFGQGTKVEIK", "pKd", 8.40),
    ("XENP35119 H1.21 L1 (antibody, V domains shown) VH: QLQVQESGPGLVKPSETLSLTCTVSGGSISNSAFSWGWIRQPPGKGLEWIGSFYYGEKTYYNPSLKSRATISIDTSKSQFSLKLSSVTAADTAVYYCPRGPTMIRGVIDSWGQGTLVTVSS VL: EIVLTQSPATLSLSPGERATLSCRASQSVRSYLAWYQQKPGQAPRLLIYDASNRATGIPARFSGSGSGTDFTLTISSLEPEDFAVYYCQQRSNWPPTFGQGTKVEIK", "pKd", 8.55),
    ("XENP35126 H1.56 L1 (antibody, V domains shown) VH: QLQVQESGPGLVKPSETLSLTCTVSGGSISNSYFSWGWIRQPPGKGLEWIGSFYYGGKTYYNPSLKSRATISIDTSKSQFSLKLSSVTAADTAVYYCPRGPTMIRGVIDSWGQGTLVTVSS VL: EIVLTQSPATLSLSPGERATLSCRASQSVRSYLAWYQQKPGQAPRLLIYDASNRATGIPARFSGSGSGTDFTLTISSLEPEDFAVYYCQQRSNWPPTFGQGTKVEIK", "pKd", 8.47),
    ("XENP35125 H1.51 L1 (antibody, V domains shown) VH: QLQVQESGPGLVKPSETLSLTCTVSGGSISNSYFSWGWIRQPPGKGLEWIGSFNYGEKTYYNPSLKSRATISIDTSKSQFSLKLSSVTAADTAVYYCPRGPTMIRGVIDSWGQGTLVTVSS VL: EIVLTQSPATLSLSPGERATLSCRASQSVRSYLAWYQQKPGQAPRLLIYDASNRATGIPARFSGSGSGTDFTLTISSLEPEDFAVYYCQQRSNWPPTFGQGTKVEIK", "pKd", 7.64),
    ("XENP35124 H1.37 L1 (antibody, V domains shown) VH: QLQVQESGPGLVKPSETLSLTCTVSGGSISNSYFSWGWVRQPPGKGLEWIGSFYYGEKTYYNPSLKSRATISIDTSKSQFSLKLSSVTAADTAVYYCPRGPTMIRGVIDSWGQGTLVTVSS VL: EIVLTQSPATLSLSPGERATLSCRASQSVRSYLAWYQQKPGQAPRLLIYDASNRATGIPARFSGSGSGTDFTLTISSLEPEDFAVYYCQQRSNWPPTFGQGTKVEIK", "pKd", 8.58),
    ("XENP35128 H1.50 L1 (antibody, V domains shown) VH: QLQVQESGPGLVKPSETLSLTCTVSGGSISNSYFSWGWIRQPPGKGLEWIGSFKYGEKTYYNPSLKSRATISIDTSKSQFSLKLSSVTAADTAVYYCPRGPTMIRGVIDSWGQGTLVTVSS VL: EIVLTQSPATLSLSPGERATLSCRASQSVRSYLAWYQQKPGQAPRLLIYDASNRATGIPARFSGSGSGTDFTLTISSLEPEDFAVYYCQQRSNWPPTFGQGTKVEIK", "pKd", 7.50),
]

Data request: Give the reported value of pKd for this record: XENP35123 H1.36 L1 (antibody, V domains shown) VH: QLQVQESGPGLVKPSETLSLTCTVSGGSISNSYFSWSWIRQPPGKGLEWIGSFYYGEKTYYNPSLKSRATISIDTSKSQFSLKLSSVTAADTAVYYCPRGPTMIRGVIDSWGQGTLVTVSS VL: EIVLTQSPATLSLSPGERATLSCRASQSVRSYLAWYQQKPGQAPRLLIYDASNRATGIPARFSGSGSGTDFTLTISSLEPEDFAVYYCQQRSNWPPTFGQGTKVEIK
Data returned: 8.29
